The measured values listed here are drawn from paper PMC7144022.

Kindly state fold increase for each of the entries shown.
# System: BVDV NADL virus
# method-summary: CPE-based antiviral assay, BVDV NADL in MDBK cells (MTS/PMS)
# assay-setup: sheet CSFCII#; potency relative to TO502-2403 (EC50 0.2 µM)
// keep it numeric: no unit symbol after the value

Request - read-out fold increase | tested on BVDV NADL virus | molecule Cc1cccc2sc(NC(=O)c3cc(-c4ccco4)nc4ccc(F)cc34)nc12 [CSFC-71]
2.00

Entry to check: Cc1noc(C)c1NC(=O)c1cc(-c2ccccc2)nc2ccccc12 [CSFC-36]
0.00424

Input Cc1cc(NC(=O)c2cc(-c3ccccc3)nc3ccccc23)no1 [CSFC-40, Cc1cc(no1)NC(=O)c3cc(nc2ccccc23)c4ccccc4]
0.00213

Next: O=C(Nc1ccn(-c2ccccc2)n1)c1cc(-c2ccco2)nc2ccccc12 [CSFC-44]
0.09

And what about the molecule O=C(Nc1ccn(-c2ccccc2)n1)c1cc(-c2cccs2)nc2c(Cl)cccc12 [CSFC-109] ?
1.00

Cool, now O=C(Nc1nc(-c2ccccc2)cs1)c1cc(-c2ccccc2)nc2ccccc12 [CSFC-60]
0.29

Same lookup for O=C(Nc1ccn(-c2ccccc2)n1)c1cc(-c2cccc3ccccc23)nc2ccccc12 [CSFC-143] , please.
2.00

Next molecule: O=C(Nc1ccn(-c2ccccc2Cl)n1)c1cc(-c2ccccc2)nc2ccccc12 [CSFC-131]
2.00
